# target: UniProt P24941
# test_protocol: Inhibition of CDK2/cyclin A
pIC50: −log10 of the molar value.
# reported pIC50; entries follow

| smiles_representation | pIC50 |
| --- | --- |
| CC(=O)N1CCN(C(=O)Cc2ccc(Nc3ncc(F)c(Nc4ccc(C(=O)Nc5ccccc5Cl)cc4)n3)cc2)CC1 | < 4.80 |
| CCN1CCN(C(=O)Cc2ccc(Nc3ncc(F)c(Nc4ccc(C(=O)Nc5ccccc5Cl)cc4)n3)cc2)CC1 | < 4.80 |

Could you tell me which pIC50 is on file for "O=C(Nc1ccccc1Cl)c1ccc(Nc2nc(Nc3ccc(O)cc3)ncc2F)cc1" ?
5.49

###

# target: Aurora kinase A (Homo sapiens)
# Sequence (O14965 whole entry): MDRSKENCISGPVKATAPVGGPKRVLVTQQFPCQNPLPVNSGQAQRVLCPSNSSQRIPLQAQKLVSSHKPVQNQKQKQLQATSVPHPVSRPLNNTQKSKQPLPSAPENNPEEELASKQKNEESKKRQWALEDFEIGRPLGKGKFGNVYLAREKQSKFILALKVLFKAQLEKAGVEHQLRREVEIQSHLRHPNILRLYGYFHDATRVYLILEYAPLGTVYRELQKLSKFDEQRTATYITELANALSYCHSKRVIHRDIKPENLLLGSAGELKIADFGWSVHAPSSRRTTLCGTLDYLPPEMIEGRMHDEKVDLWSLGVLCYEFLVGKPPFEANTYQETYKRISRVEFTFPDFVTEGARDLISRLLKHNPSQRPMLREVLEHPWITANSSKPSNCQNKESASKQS
# test_protocol: Inhibition of N-terminal flag-tagged Aurora A expressed in Escherichia coli BL21-DE3 by ELISA
# reported pIC50; entries follow
Field pIC50 (float): negative decimal logarithm of the concentration in molar.

Could you tell me which pIC50 is on file for "Cc1cnc(Nc2ccc(O)cc2)nc1Nc1ccc(O)cc1" ?
7.47

Now consider "COc1ccccc1NC(=O)c1ccc(Nc2nc(Nc3ccc(O)cc3)ncc2F)cc1" .
7.11

Now consider "N#Cc1cnc(Nc2ccc(O)cc2)nc1Nc1ccc(O)cc1" .
7.64

Now consider "O=C(Nc1cccc(F)c1)c1ccc(Nc2nc(Nc3ccc(O)cc3)ncc2F)cc1" .
7.23

Now consider "COc1ccc(NC(=O)c2ccc(Nc3nc(Nc4ccc(O)cc4)ncc3F)cc2)cc1" .
7.85

Now consider "COc1ccc(Nc2ncc(F)c(Nc3ccc(OC)cc3)n2)cc1" .
6.89

Now consider "CCc1cnc(Nc2ccc(O)cc2)nc1Nc1ccc(O)cc1" .
6.82

###

# target: UniProt Q96GD4
# test_protocol: Inhibition of N-terminal flag-tagged Aurora B expressed in Escherichia coli BL21-DE3 by ELISA
test_readout: pIC50
Field pIC50 (float): negative decimal logarithm of the concentration in molar.

Example compounds with recorded pIC50:
| smiles_representation | pIC50 |
| --- | --- |
| O=C(Nc1ccccc1Cl)c1ccc(Nc2nc(Nc3ccc(O)cc3)ncc2F)cc1 | 5.72 |
| O=C(Nc1ccc(Nc2nc(Nc3ccc(O)cc3)ncc2F)cc1)c1ccccc1Cl | 5.85 |
| O=C(NC1CC1)c1ccc(Nc2nc(Nc3ccc(O)cc3)ncc2F)cc1 | 5.42 |
| CC(=O)N1CCN(C(=O)Cc2ccc(Nc3ncc(F)c(Nc4ccc(C(=O)Nc5ccccc5Cl)cc4)n3)cc2)CC1 | 5.43 |

Now consider a different compound.
Write down the reported pIC50 of "CCN1CCN(C(=O)Cc2ccc(Nc3ncc(F)c(Nc4ccc(C(=O)Nc5ccccc5Cl)cc4)n3)cc2)CC1" , test system: UniProt Q96GD4.
5.47

###

# target: Aurora kinase B (Homo sapiens)
# Sequence (Q96GD4 whole entry): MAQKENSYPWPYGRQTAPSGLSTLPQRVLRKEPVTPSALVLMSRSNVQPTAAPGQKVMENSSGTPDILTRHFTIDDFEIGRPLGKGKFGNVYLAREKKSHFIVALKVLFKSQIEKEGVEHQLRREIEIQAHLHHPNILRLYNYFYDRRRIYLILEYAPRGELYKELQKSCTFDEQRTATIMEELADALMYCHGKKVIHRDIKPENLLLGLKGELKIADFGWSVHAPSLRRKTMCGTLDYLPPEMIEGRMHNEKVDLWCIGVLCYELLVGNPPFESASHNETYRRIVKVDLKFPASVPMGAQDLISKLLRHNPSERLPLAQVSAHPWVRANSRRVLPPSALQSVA
# test_protocol: Inhibition of Aurora B in human HCT116 cells assessed as complete loss of phospho-histone H3 staining by immunofluorescence assay
test_readout: IC50

| smiles_representation | target | reported_result |
| --- | --- | --- |
| CCN1CCN(C(=O)Cc2ccc(Nc3ncc(F)c(Nc4ccc(C(=O)Nc5ccccc5Cl)cc4)n3)cc2)CC1 | Aurora kinase B (Homo sapiens) | > 50 µM |

Write down the reported IC50 of "CC(=O)N1CCN(C(=O)Cc2ccc(Nc3ncc(F)c(Nc4ccc(C(=O)Nc5ccccc5Cl)cc4)n3)cc2)CC1" , test system: Aurora kinase B (Homo sapiens).
> 25 µM

Now consider "O=C(Nc1ccccc1Cl)c1ccc(Nc2nc(Nc3ccc(O)cc3)ncc2F)cc1" .
> 25 µM

Now consider "O=C(Nc1ccc(Nc2nc(Nc3ccc(O)cc3)ncc2F)cc1)c1ccccc1Cl" .
> 12 µM

Now consider "O=C(NC1CC1)c1ccc(Nc2nc(Nc3ccc(O)cc3)ncc2F)cc1" .
> 25 µM

Origin of measurements: ChEMBL document CHEMBL1138512
